assay: In vivo pharmacokinetic study; parameters: species or system CD-1 mice; conditions: male, CD-1, mouse, plasma; PO 10 mg/kg, 1 h
observationType: concentration at 1 h (ng/mL)
Give the value in ng/mL but do not write ng/mL after it.

For CC12CCC(=O)C=C1CCCC2n1cc(-c2ccccc2)nn1 (stereo not shown) , what is its reported concentration at 1 h?
22.8

* * *

test: In vivo pharmacokinetic study; parameters: species or system CD-1 mice; conditions: male, CD-1, mouse, plasma; IV 10 mg/kg, 1 h
observationType: concentration at 1 h (ng/mL)
The answer is to be given in ng/mL; state only the numeric part.

Entry under review: CC12CCC(=O)C=C1CCCC2n1cc(-c2ccccc2)nn1 (stereo not shown) [Compound 45] . Reported concentration at 1 h?
7.76

* * *

test: In vivo pharmacokinetic study; design: species or system CD-1 mice; details: male, CD-1, mouse, plasma; PO 10 mg/kg, 0.5 h
observationType: concentration at 0.5 h (ng/mL)
Just the number please, in ng/mL, no unit attached.

Data request, read-out concentration at 0.5 h, for CC12CCC(=O)C=C1CCCC2n1cc(-c2ccccc2)nn1 (stereo not shown) [Compound 45]
79.7

* * *

assay: In vivo pharmacokinetic study; design: species or system CD-1 mice; details: male, CD-1, mouse; CD1 mice, IV 10 mg/kg, plasma
observationType: C0 (ng/mL)
Answer format: numeric, ng/mL implied, no suffix.

Look at this compound and give its reported C0. CC12CCC(=O)C=C1CCCC2n1cc(-c2ccccc2)nn1 (stereo not shown)
1980

* * *

assay: In vivo pharmacokinetic study; set-up: species or system CD-1 mice; details: male, CD-1, mouse, plasma; CD1 mice, IV 10 mg/kg
observationType: half-life

# half-life lookup, item CC12CCC(=O)C=C1CCCC2n1cc(-c2ccccc2)nn1 (stereo not shown)
7.5 min

* * *

test: Metabolic stability in human hepatocytes; type: in vitro ADME; conditions: human hepatocytes; read-out: Scale-up Clint
observationType: CLint scaled at 1 µM (mL/min/kg)
Your answer should be a plain number; it is taken to be in mL/min/kg.

GET /values?readout=CLint scaled at 1 µM&item= CC12CCC(=O)C=C1CCCC2n1cc(-c2ccccc2)nn1 (stereo not shown)
91.7

* * *

target: NKAα4 (Rattus norvegicus, UniProt Q64541); construct: made in house; host or cells: Sf9 insect cells (baculovirus infection), cell homogenates; assay: Na,K-ATPase activity assay, α4β1 expressed in Sf9 insect cells; assay type: biochemical
Sequence (Q64541 whole entry, other chains not shown): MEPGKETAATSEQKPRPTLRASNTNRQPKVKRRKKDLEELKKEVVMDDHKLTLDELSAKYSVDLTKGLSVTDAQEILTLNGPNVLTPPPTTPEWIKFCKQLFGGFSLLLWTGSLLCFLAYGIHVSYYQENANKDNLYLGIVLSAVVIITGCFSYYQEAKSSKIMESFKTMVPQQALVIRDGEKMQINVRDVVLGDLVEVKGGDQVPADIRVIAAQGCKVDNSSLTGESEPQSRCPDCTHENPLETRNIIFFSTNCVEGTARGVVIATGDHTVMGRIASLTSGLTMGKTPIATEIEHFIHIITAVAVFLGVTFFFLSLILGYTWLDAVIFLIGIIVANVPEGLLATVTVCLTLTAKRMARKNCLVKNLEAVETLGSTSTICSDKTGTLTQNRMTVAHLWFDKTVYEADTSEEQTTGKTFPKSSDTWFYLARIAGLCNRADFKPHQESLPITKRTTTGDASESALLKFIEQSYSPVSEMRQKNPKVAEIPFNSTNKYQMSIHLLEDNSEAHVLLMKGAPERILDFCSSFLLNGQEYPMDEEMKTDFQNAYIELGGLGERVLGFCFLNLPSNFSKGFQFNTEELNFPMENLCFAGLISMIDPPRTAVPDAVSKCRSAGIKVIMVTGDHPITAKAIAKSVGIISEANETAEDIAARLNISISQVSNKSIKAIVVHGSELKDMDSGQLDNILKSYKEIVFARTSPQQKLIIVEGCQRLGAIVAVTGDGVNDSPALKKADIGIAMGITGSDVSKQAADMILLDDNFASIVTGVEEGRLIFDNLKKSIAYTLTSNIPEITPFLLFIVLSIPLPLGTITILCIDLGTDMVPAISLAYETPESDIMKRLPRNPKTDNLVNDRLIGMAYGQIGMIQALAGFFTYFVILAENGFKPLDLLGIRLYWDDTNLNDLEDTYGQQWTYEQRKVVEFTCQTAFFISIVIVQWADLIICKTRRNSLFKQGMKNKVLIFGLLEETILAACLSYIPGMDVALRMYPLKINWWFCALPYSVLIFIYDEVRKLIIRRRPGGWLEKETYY
observationType: IC50 (nM)
Just the number in nM, nothing appended.

Can you look up the measured IC50 of C[C@]12CC[C@H]3[C@@H](CC=C4C[C@@H](O)CC[C@@]43C)[C@@H]1CC[C@@H]2c1cn(Cc2ccccc2)nn1 [Compound 13] for me?
0.1

* * *

assay: Metabolic stability in mouse hepatocytes; type: in vitro ADME; conditions: mouse, hepatocytes, mouse hepatocytes; read-out: In vitro T1/2
observationType: half-life at 1 µM (min)
API: value field is a number in min; no unit string.

Entry under review: CC12CCC(=O)C=C1CCCC2n1cc(-c2ccccc2)nn1 (stereo not shown) . Reported half-life at 1 µM?
18

* * *

experiment: In vivo pharmacokinetic study; set-up: species or system CD-1 mice; conditions: male, CD-1, mouse, plasma; PO 10 mg/kg, 3 h
observationType: concentration at 3 h (ng/mL)
Numeric only. Scale: ng/mL

Reported concentration at 3 h for CC12CCC(=O)C=C1CCCC2n1cc(-c2ccccc2)nn1 (stereo not shown) [Compound 45] : what is it?
2.14
